- assayedTarget: NADPH oxidase 2 (Homo sapiens)
- protocolSummary: NOX2-dependent H2O2 signal modulators, primary screen, NOX inhibitor project, cell-based, HEK293-NOX2, PMA-stimulated, Amplex Red fluorescence (AID 1159); also: test concentration not given here
- measurementContext: 45 min, higher = more signal, called active from +8 up or from −8 down
We use 0.4 as the dividing line for z-score: on or above the line is Satisfied, below is Not satisfied.

Here's what some known entries look like.
compound	className
CC(C)N1CC=CC23O[C@@H]4/C=C\CCCOC(=O)C4[C@H]2C(=O)N(C(C)CO)[C@@H]3C1=O (some centres undefined)	Satisfied
COc1ccc(CCNC(=O)[C@@]2(c3ccc([N+](=O)[O-])cc3)CC(=O)N(C3CCCCC3)[C@@H]2c2ccc(CO)cc2I)cc1	Satisfied
O=C1C2C=CC(C(O)c3ccccn3)N(Nc3ccc([N+](=O)[O-])cc3)C2C(=O)N1c1ccccc1 (centres undefined)	Not satisfied

# input Could you please find out whether COC(=O)[C@@]1(Cc2ccc(F)cc2)[C@H]2c3cc(C(=O)N4CCCC4)n(Cc4ccc(OC(F)(F)F)cc4)c3C[C@H]2CN1C(=O)c1ccccc1 has z-score that meets 0.4 or exceeds it?
# output Not satisfied

# input Could you please find out whether Cc1ccc(S[C@]2(C(=O)NCCN3CCOCC3)CC(=O)N(C(C)C)[C@@H]2c2ccc(CO)cc2I)cc1 has z-score that meets 0.4 or exceeds it?
# output Not satisfied

* * *

- assayedTarget: Pro-neuregulin-1, membrane-bound isoform (Homo sapiens) (UniProt Q02297)
- Sequence (Q02297 whole entry, looked up, canonical isoform): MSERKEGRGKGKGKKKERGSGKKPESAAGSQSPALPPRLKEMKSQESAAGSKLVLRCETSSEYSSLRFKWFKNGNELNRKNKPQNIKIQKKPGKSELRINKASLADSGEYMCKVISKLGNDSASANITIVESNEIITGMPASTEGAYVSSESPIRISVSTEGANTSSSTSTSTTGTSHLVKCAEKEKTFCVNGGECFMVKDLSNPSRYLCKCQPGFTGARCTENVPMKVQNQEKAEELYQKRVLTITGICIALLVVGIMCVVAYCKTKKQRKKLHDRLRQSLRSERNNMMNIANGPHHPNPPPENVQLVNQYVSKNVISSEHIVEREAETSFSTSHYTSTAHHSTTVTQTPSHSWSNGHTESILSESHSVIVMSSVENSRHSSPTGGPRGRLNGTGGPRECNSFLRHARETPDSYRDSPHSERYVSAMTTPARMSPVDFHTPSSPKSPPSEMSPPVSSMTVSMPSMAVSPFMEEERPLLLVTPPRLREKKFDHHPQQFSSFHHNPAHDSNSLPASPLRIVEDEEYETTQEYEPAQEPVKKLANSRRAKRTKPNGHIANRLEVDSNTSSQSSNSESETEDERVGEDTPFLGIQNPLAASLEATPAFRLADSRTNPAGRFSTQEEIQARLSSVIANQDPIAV
- protocolSummary: NRG1 binders on small-molecule microarrays, primary screen, psychiatric disease protein project, biochemical, small-molecule microarray, fluorescence 635/667 (AID 1075);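 also: score combines 667 nm spot fluorescence with signal to noise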
- measurementContext: NRG1 binding, 635 nm fluorescence, higher = more signal
# composite z-score binned as lowest = under 0.1, middle = from 0.1 up to 1, highest = 1 and over

compound	assayedTarget	className
C=C(CC1([C@@H](NP(=O)(c2ccccc2)c2ccccc2)[C@H]2C[C@@H]2CCCC)CC1)c1cccc(OC)c1	Pro-neuregulin-1, membrane-bound isoform (Homo sapiens) (UniProt Q02297)	lowest
CC(C)c1ccc(NN2C(C(O)C(C)c3ccccc3)C=CC3C(=O)N(c4ccccc4)C(=O)C32)cc1 (centres undefined)	Pro-neuregulin-1, membrane-bound isoform (Homo sapiens) (UniProt Q02297)	highest
C[C@@]1([C@@H](NS(=O)(=O)c2cccc3cccnc23)c2ccc(-c3ccccc3)cc2)C[C@H]1C1CCCCC1	Pro-neuregulin-1, membrane-bound isoform (Homo sapiens) (UniProt Q02297)	middle
C=CCC(OC(C)=O)[C@@H]1[C@@H](N(Cc2ccc(-c3ccccc3)cc2)C(=O)Cc2ccc(OC)cc2)c2cc(OCCCO)ccc2N1C(=O)c1ccc2ccccc2c1 (some centres undefined)	Pro-neuregulin-1, membrane-bound isoform (Homo sapiens) (UniProt Q02297)	lowest
C=CCNC(=O)[C@H]1[C@@H]2C(=O)O[C@@H](c3ccccc3)[C@@H](c3ccccc3)N2[C@@H](c2ccc(OCCO)cc2)[C@]12C(=O)N(C(=O)OCCOC)c1ccc(C#CCC(C(=O)OC)C(=O)OC)cc12	Pro-neuregulin-1, membrane-bound isoform (Homo sapiens) (UniProt Q02297)	highest
CC(C)(C)OC(=O)CC[C@@]1(C(=O)N2CCOCC2)N=C(c2ccc(OCCCO)cc2)O[C@@H]1c1ccccc1CN=[N+]=[N-]	Pro-neuregulin-1, membrane-bound isoform (Homo sapiens) (UniProt Q02297)	highest

# input Looking at COC(=O)[C@H](Cc1ccccc1)N1CC(C)(OC)O[C@@H](Cc2ccccc2)[C@H]1/C=C/C1CC1 (some centres undefined) , which class would you pick?
# output lowest

# input Looking at O=C1OCCC/C=C\[C@H]2OC34C=CCN(Cc5ccccc5)C(=O)[C@H]3N(CCO)C(=O)[C@@H]4C12 (some centres undefined) , which class would you pick?
# output highest

* * *

- protocolSummary: modulators of HCV replicon luciferase signal, primary screen, HCV replication inhibitor project, Huh7 cells, luciferase reporter (AID 1109);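 also: huh7 hepatoma cells harbouring a luciferase neomycin HCV replicon reporter; luciferase luminescence as measure of HCV replicon replication; test concentration not given here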
- measurementContext: 48 h, higher = more signal
measuredParameter: z-score
// keep it numeric: no unit symbol after the value

The examples below pair each entry with its known result.
molecule	z-score
COc1ccc(CCNC(=O)[C@@]2(C)c3ccccc3C(=O)N(Cc3ccc(OC(F)(F)F)cc3)[C@H]2c2ccc(CO)cc2)cc1	-1.84
COc1ccc([Si](C)(C)[C@H]2[C@H](CC(=O)N(CCO)Cc3ccccc3)O[C@@]3(C(=O)N(Cc4ccc(N5C(=O)c6cccc7cccc5c67)cc4)c4ccccc43)[C@@H]2C)cc1	-3.78
CC(=O)NCCCC[C@@H]1NC(=O)[C@H]2C[C@@H](C(=O)NCCCCCN)[C@@H](c3ccc(O)cc3)N2C1=O	0.199
COc1ccc([Si](C)(C)[C@@H]2[C@@H](CC(=O)N3CCC[C@H]3CO)O[C@]3(C(=O)N(Cc4cccc(N5C(=O)c6cccc7cccc5c67)c4)c4ccccc43)[C@H]2C)cc1	-2.11
C=CCC(OC(C)=O)[C@@H]1[C@@H](N(Cc2ccc(-c3ccccc3)cc2)C(=O)Cc2ccc(OC)cc2)c2cc(OCCCO)ccc2N1C(=O)Cc1ccc(OC)cc1 (some centres undefined)	-0.496

Okay, next one:
# input Which z-score value belongs to CC[C@@H]1C=C(C(=O)O)[C@H](c2cccc(Cl)c2)N1S(=O)(=O)c1ccc(C)cc1 ?
# output -0.54

* * *

- protocolSummary: osmotic lysis modulators in infected erythrocytes, primary screen, PSAC antagonist project, cell-based, P. falciparum Indochina, OD700, 3 h (AID 1156)
- measurementContext: called active from +8 up or from −8 down
Activity calls are given as the source filed them.
Assign a class; possible classes are active, inactive

Here's what some known entries look like.
compound	className
COC(=O)[C@@]1(Cc2ccc(F)cc2)[C@H]2c3cc(C(=O)N4CCCC4)n(Cc4ccc(OC(F)(F)F)cc4)c3C[C@H]2CN1C(=O)c1ccccc1	inactive
CCCCN1CC=CC23O[C@@H]4/C=C\CCC(C)OC(=O)C4[C@H]2C(=O)N(CCO)[C@@H]3C1=O (some centres undefined)	inactive

# input Which outcome was assigned to COc1cc2c(cc1O)C(C)N(Cc1sc3ccccc3c1Cl)CC2 (centres undefined) in this test?
# output inactive

# input Which outcome was assigned to CC[C@H]1C2=C3C(CC[C@H]4C(OCc5ccc(F)cc5C(F)(F)F)OC[C@](C)([C@@H]34)N(C(=O)OC(C)(C)C)C2)C(COC(C)=O)C1COC(C)=O (some centres undefined) in this test?
# output inactive

# input Which outcome was assigned to O=C(CS)NCCCCCCNC(=O)[C@H]1C[C@H]2C(=O)NCC(=O)N2[C@H]1c1cccc(OCCO)c1 in this test?
# output inactive

# input Which outcome was assigned to COC(=O)[C@H](Cc1ccccc1)N1CC(C)(OC)O[C@@H](Cc2ccccc2)[C@H]1/C=C/C1CC1 (some centres undefined) in this test?
# output inactive

# input Which outcome was assigned to CC(C)c1ccc(NN2C(C(O)C3=C[C@H]4C[C@@H](C3)C4(C)C)C=CC3C(=O)N(c4ccccc4)C(=O)C32)cc1 (some centres undefined) in this test?
# output inactive

# input Which outcome was assigned to O=C1O[C@H](c2ccccc2)[C@H](c2ccccc2)N2[C@H]1[C@@H](C(=O)O)[C@]1(C(=O)Nc3ccccc31)[C@H]2c1ccc(OCCO)cc1 in this test?
# output inactive

# input Which outcome was assigned to CCCCCCc1nc(-c2ccc(OC)nc2)c(C)c2c1[Si](C(C)C)(C(C)C)OC2 in this test?
# output inactive

# input Which outcome was assigned to C=CCOC(=O)[C@@H]1[C@H]2C(=O)O[C@H](c3ccccc3)[C@H](c3ccccc3)N2[C@H](c2ccc(OCCOC(=O)[C@@H]3C[C@@H]4C(=O)N[C@@H](CC(C)C)C(=O)N4[C@@H]3c3ccc(O)cc3)cc2)[C@@]12C(=O)Nc1ccc(I)cc12 in this test?
# output inactive

# input Which outcome was assigned to CC(C)[Si](C#Cc1ccccc1)(O[C@H](c1ccccc1)c1cn(Cc2ccccc2)nn1)C(C)C in this test?
# output inactive

# input Which outcome was assigned to C=CC[C@]12N=C(c3ccc(OCCCO)cc3)O[C@H]1c1ccccc1N(CCC)C2=O in this test?
# output inactive

# input Which outcome was assigned to COc1cc(Cc2cc3c(c(CCc4ccccc4)n2)[Si](C(C)C)(C(C)C)O[C@H]3c2ccccc2)cc(OC)c1OC in this test?
# output inactive

# input Which outcome was assigned to O=C1O[C@H](c2ccccc2)[C@H](c2ccccc2)N2[C@H]1[C@@H](C(=O)O)[C@]1(C(=O)Nc3ccc(C#CC4(O)CCCCCC4)cc31)[C@H]2c1ccccc1OCCO in this test?
# output active

* * *

- protocolSummary: CREB reporter modulators under forskolin, primary screen, cell-based, PC12, CRE-LacZ reporter, forskolin-stimulated (AID 1146);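 also: PC12 cells with 6xCRE LacZ reporter stimulated by forskolin 10 µM; beta-galactosidase reporter signal reflecting CREB driven transcription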
- measurementContext: luminescence, 4.5 h, higher = more signal, called active from +8 up or from −8 down
We use -0.1 as the dividing line for z-score: on or above the line is Criterion met, below is Criterion not met.

molecule	className
CCOC(=O)C1=CCC(c2cccn2C(=O)OC(C)(C)C)N(S(=O)(=O)c2ccc(C)cc2)C1 (configuration not stated)	Criterion met
COCCCNC(=O)[C@]1(Cc2ccccc2N=[N+]=[N-])N=C(c2ccc(OCCCO)cc2)O[C@@H]1c1ccccc1	Criterion not met
Cc1ccc(S[C@]2(C(=O)NCC(C)C)CC(=O)N(C(C)C)[C@@H]2c2ccc(CO)cc2I)cc1	Criterion met
C=C(C)C1CN([C@H](CO)c2ccccc2)C(=O)/C1=C\c1ccccc1 (some centres not stated)	Criterion not met
COCCCNC(=O)[C@@]1(c2ccc([N+](=O)[O-])cc2)CC(=O)N(C2CCCCC2)[C@@H]1c1ccc(CO)cc1I	Criterion not met
C=C[C@@H](CO)NS(=O)(=O)c1ccc(Br)cc1	Criterion not met

# input Could you please find out whether C=CC[C@H](OC(=O)Nc1ccc(SC)cc1)c1ccc(O)c(F)c1 has z-score that meets -0.1 or exceeds it?
# output Criterion met

# input Could you please find out whether O=C1O[C@@H](c2ccccc2)[C@@H](c2ccccc2)N2[C@@H](c3ccc(OCCO)cc3)[C@]3(C(=O)Nc4ccc(C#CC5=CCCCC5)cc43)[C@@H](C(=O)Nc3nc4ccccc4s3)[C@H]12 has z-score that meets -0.1 or exceeds it?
# output Criterion not met

# input Could you please find out whether OCCCc1cc[n+](Cc2cc3c(cc2Br)OCO3)cc1 has z-score that meets -0.1 or exceeds it?
# output Criterion not met

# input Could you please find out whether O=C1C2C=CC(C(O)c3ccccn3)N(Nc3ccc([N+](=O)[O-])cc3)C2C(=O)N1c1ccccc1 (configuration not stated) has z-score that meets -0.1 or exceeds it?
# output Criterion met

# input Could you please find out whether CCCC=C(CCC)[C@@H](NC(=O)c1ccc(C(=O)OC)cc1)c1ccc(C(=O)OC)cc1 has z-score that meets -0.1 or exceeds it?
# output Criterion met
